Collected response rating values appear next to each entry.
test system: sorghum; experiment: Test A pre-emergence; assay type: in vivo; parameters: key: 0 = no effect, 10 = maximum effect; letter = response symbol; details: 0.4 kg/ha
MEASUREMENT_KIND: response rating (G)

compound="CCCCCCCCCCOC(=O)c1ccccc1S(=O)(=O)NC(=O)Nc1nc(C)nc(OC)n1 [drawing 497]" result_number=3
compound="COc1nc(NC(=O)NS(=O)(=O)c2ccccc2C(=O)OC2CCCCC2)nc(OC)n1 [drawing 499]" result_number=8
compound="COc1cc(OC)nc(NC(=O)NS(=O)(=O)c2ccccc2C(=O)OC2CCCCC2)n1 [drawing 498]" result_number=8
